These data points were gathered from PubChem BioAssay (EPA / NIEHS).

# Read-out: CYP2C8 (gene 1558)
# Measurement Protocol: LTEA_HepaRG_CYP2C8: Life Technologies and Expression Analysis (LTEA) Assay for CYP2C8 using HepaRG (AID 2283483)
# Condition Details: mRNA level, 48 h; actives raise or lower the signal
Activity calls are given as the source filed them. Rule for the calls: active = hit-call score of the fitted dose curve at least 0.9, where 1 is the maximum; inactive = score below 0.9.
The reply should name one outcome from active, inactive

Status in this test for CCN(Cc1cccc(S(=O)(=O)O)c1)c1ccc(C(=C2C=CC(=[N+](CC)Cc3cccc(S(=O)(=O)O)c3)C=C2)c2ccccc2S(=O)(=O)[O-])cc1 ?
inactive

Status in this test for COCC(C)OCC(C)OCC(C)O (stereo not drawn) ?
inactive

Status in this test for O=c1[nH]sc2ccccc12 ?
inactive

Status in this test for CC1=CC(=O)/C(=C(/C)O)C(=O)O1 ?
inactive

Status in this test for Cc1cc2c(cc1C(F)(F)F)N(C(=O)Nc1ccc(Oc3cccnc3C)nc1)CC2 ?
inactive

Next:
Status in this test for O=C(O)c1ccccc1C(=O)OCc1ccccc1 ?
inactive

Status in this test for CN(C)c1ccc(C(=C2C=CC(=[N+](C)C)C=C2)c2ccc(N(C)C)cc2)cc1 ?
active
